These entries and their values trace back to PubChem BioAssay (NCI).

- System: HCT-15 colon
- experimentNotes: NCI-60 one-dose screen, 48 h (100 = growth as untreated, 0 = no growth, -100 = all killed)
- measurementSetup: 10 µM unless noted
This is part of a sample that, as a whole, favours compounds with a hit. Of some 83,000 tested, about 20% had one in any assay.
Entries and their growth
quantityMeasured: growth (%)

> print(dat)
                                    compound  displayunit    val
 1  Cn1ccc(Nc2nccc(Oc3ccc(C(=O)Nc4cccc(F)c4)c(Cl)c3)n2)c1            %   91.9
 2  NC(=O)CCCN1C/C(=C\c2ccccc2)C(=O)c2ccccc21            %    105
 3    COC(=O)c1cc2cc(-c3ccc(OC)cc3)cnc2[nH]1            %     11
 4  CCOC(=O)c1cc(C(=O)c2cc(OC)c(OC)c(OC)c2)n2c1ccc1ccccc12            %   25.7
 5  COc1ccc(-c2ccc(C)n2-c2ccc(-c3nc4ccccc4s3)cc2)cc1            %   96.5
 6  N=C(N)c1ccc(-c2ccc(-c3cncc4ccccc34)s2)cc1F            %  -80.6
 7  COc1ccc2c(c1)[nH]c(=O)c1c3cc(C)c(C)cc3cn21            %  -87.5
 8  CC(C)(C)c1[nH]nc2c1C(c1cc3ccccc3[nH]c1=O)Nc1cc(C(=O)Nc3ccc(Cl)cc3)ccc1N2 (stereo not given)            %   98.8
 9             O=c1ccn(-c2ncnc3nc[nH]c23)cc1            %    102
10  CCN(CC)CCCC(C)Nc1c2ccc(Cl)cc2nc2cc(OC)c(OC)cc12 (stereo not given)            %  -22.4

---

Entries and their growth
- Test system: MDA-MB-231 breast
- experimentNotes: NCI-60 one-dose screen, 48 h (100 = growth as untreated, 0 = no growth, -100 = all killed)
- measurementSetup: 10 µM unless noted
This is part of a sample that, as a whole, favours compounds with a hit. Of some 83,000 tested, about 20% had one in any assay.
quantityMeasured: growth (%)

> print(dat)
                                    molecule    val
 1  S=c1[nH]nc(-c2cc3ccc2CCc2ccc(cc2)CC3)n1C1CC1   99.5
 2              Clc1ccc(-c2nc3ccccc3s2)cc1Cl     68
 3  NC(=S)N/N=C1\CCCC(C(F)(F)F)C1 (stereo not given)    102
 4  c1cc(C2=N[C@@H]3c4ccccc4C[C@@H]3O2)nc(C2=N[C@@H]3c4ccccc4C[C@@H]3O2)c1    105
 5  O=C(NNC(=O)N1c2ccccc2C=Cc2ccccc21)c1ccccc1    111
 6  CCCCCCCC/C=C/CCCCCCCC1=NC(C)(C)CN1C(C)(C)CO   17.5
 7  Cc1ccc(S(=O)(=O)NCCNc2nccc(-c3c(-c4cccc(N)c4)nc4sccn34)n2)cc1   85.9
 8  CCOC(=O)c1ccc(NC(=O)N2CC(C)OC(C)C2)cc1 (stereo not given)   96.5
 9  COc1ccc(/C=C(\C#N)c2cc(OC)c3c(c2)OCO3)cc1   10.4
10  COc1cc2c(cc1OCCCCCn1c3ccccc3c3ccccc31)N=C[C@@H]1CCCN1C2=O  -87.1
